TGT: isolated recombinant JAK1 kinase domain (Homo sapiens)
Construct: isolated recombinant JAK1 and JAK2 kinase domain
Sequence (P23458 875-1153 limits assumed): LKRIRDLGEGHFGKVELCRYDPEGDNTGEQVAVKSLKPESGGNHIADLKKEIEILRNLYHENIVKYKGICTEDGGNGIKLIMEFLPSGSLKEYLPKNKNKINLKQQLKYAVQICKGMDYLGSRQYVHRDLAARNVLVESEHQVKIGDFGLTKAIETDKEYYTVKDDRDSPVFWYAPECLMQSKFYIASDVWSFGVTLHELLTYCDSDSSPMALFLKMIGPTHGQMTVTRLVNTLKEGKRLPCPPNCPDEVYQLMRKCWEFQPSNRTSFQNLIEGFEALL
EXPERIMENT SUMMARY: JAK enzyme assay (Caliper LabChip), JAK1
CONDITION DETAILS: 1.5 nM JAK1, ATP 25 μM, 22° C., 30 minutes; Morrison tight binding model
Protocol: The activity of the isolated recombinant JAK1 and JAK2 kinase domain was measured by monitoring phosphorylation of a peptide derived from JAK3 (Val-Ala-Leu-Val-Asp-Gly-Tyr-Phe-Arg-Leu-Thr-Thr, fluorescently labeled on the N-terminus with 5-carboxyfluorescein) using the Caliper LabChip® technology (Caliper Life Sciences, Hopkinton, Mass.). […]
Where a name gives a salt, the structure may show the parent alone.
READOUT KIND: Ki

// solved cases for Ki follow
>>> test_value("OCCn1cc(Nc2nc3c(N4CCC(CO)(c5ccc(Cl)cc5)CC4)cccn3n2)cn1")
"0.11 nM"
>>> test_value("COCCOc1ccc(COc2ccc(-c3cccn4nc(Nc5cnn(C[C@H]6CCCN6)c5)nc34)cc2)cn1")
"1.9 nM"
>>> test_value("OCC1(c2ccc(Cl)cc2)CCN(c2cccn3nc(Nc4cnn(CC5CCNCC5)c4)nc23)CC1 [Compound 1-1, hydrochloride]")
"0.21 nM"
>>> test_value("Cn1cc(Nc2nc3c(N4CCC(CN)(c5ccc(Cl)cc5)CC4)cccn3n2)cn1")
"0.55 nM"
>>> test_value("COCCOc1ccc(COc2ccc(-c3cccn4nc(Nc5cnn(C6CCNCC6)c5)nc34)cc2)cn1")
"0.82 nM"

Lookup: Would you kindly share the measured Ki for "OCC1(c2ccc(Cl)cc2)CCN(c2cccn3nc(Nc4cnn(CC(F)F)c4)nc23)CC1" ?
Found: 0.16 nM

Lookup: Would you kindly share the measured Ki for "CSc1ccc(C2(CC#N)CCN(c3cccn4nc(Nc5cnn(CCN(C)C)c5)nc34)CC2)cc1" ?
Found: 5.1 nM

Lookup: Would you kindly share the measured Ki for "N#CCCN1CCC(n2cc(Nc3nc4c(N5CCC(CO)(c6ccc(Cl)cc6)CC5)cccn4n3)cn2)CC1" ?
Found: 0.27 nM

Lookup: Would you kindly share the measured Ki for "COC(=O)CNCC1(c2ccc(Cl)cc2)CCN(c2cccn3nc(Nc4cnn(C)c4)nc23)CC1" ?
Found: 1.4 nM

Lookup: Would you kindly share the measured Ki for "OCCCn1cc(Nc2nc3c(N4CCC(CO)(c5ccc(Cl)cc5)CC4)cccn3n2)cn1" ?
Found: 0.18 nM

Lookup: Would you kindly share the measured Ki for "CCc1cnn(C2(CC#N)CN(c3cccn4nc(Nc5cnn(Cc6cn(C7CCN(C8COC8)CC7)nn6)c5)nc34)C2)c1" ?
Found: 0.9 nM

Lookup: Would you kindly share the measured Ki for "COC(=O)CN1CCC2(CC1)CN(C(=O)N1CC=C(c3cccn4nc(Nc5cnn(C)c5)nc34)CC1)C2" ?
Found: 38 nM

Where do the numbers come from? From patent US20180327402A1.
